Molecular target: UniProt:P49841
Sequence (P49841 whole entry, species assumed): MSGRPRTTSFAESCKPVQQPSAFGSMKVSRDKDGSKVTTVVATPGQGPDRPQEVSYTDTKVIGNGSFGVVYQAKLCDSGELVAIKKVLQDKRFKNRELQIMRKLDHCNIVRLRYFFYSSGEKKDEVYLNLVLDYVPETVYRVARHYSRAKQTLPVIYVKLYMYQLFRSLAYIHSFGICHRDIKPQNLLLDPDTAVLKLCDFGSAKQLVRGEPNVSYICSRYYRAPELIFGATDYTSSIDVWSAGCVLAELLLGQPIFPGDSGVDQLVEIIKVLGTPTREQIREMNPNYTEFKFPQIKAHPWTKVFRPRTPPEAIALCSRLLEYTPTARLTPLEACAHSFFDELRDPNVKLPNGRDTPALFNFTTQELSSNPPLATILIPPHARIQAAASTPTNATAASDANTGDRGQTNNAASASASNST
Test: GSK3β kinase assay (Caliper LabChip3000 mobility shift, fluoresceinated peptide substrate)
Format: biochemical
pIC50: −log10 of the molar value.

| smiles structure | pIC50 |
| --- | --- |
| N#Cc1ccc(Nc2nccc(C(=O)Nc3cnccc3-c3ccccc3)n2)cc1C(F)(F)F | 8.82 |
| N#Cc1ccc(Nc2nccc(C(=O)Nc3cnccc3-c3ccccc3)n2)cc1Cl | 9.62 |
| O=C(Nc1cnccc1-c1ccccc1)c1ccnc(Nc2ccc(C(F)(F)F)cc2F)n1 | 8.48 |
| O=C(Nc1cnccc1OCC(F)(F)F)c1ccnc(Nc2ccccn2)n1 | 7.70 |
| O=C(Nc1cncnc1OCC(F)(F)F)c1ccnc(NCC2CCOCC2)n1 | 8.51 |
| O=C(Nc1cnccc1OCC(F)(F)F)c1ccnc(NC2CCOCC2)n1 | 9.00 |
| CC1(CNc2nccc(C(=O)Nc3cncnc3OCC(F)(F)F)n2)COC1 | 8.48 |
| O=C(Nc1cnccc1-c1ccccc1)c1ccnc(NC2CCCCC2)n1 | 8.68 |
| O=C(Nc1cncnc1N1CCOCC1)c1ccnc(NCC2CCC2)n1 | 8.06 |
| O=C(Nc1cnccc1OCC(F)(F)F)c1ccnc(NCc2ccc3c(c2)OCO3)n1 | 8.72 |
| N#Cc1ccc(Nc2nccc(C(=O)Nc3cnc(F)cc3N3CCC(F)(F)CC3)n2)cc1 | 9.49 |
| Cc1cc(Nc2nccc(C(=O)Nc3cnccc3-c3ccccc3)n2)ccn1 | 9.08 |
| CN1CCC(Nc2nccc(C(=O)Nc3cnccc3OCC(F)(F)F)n2)CC1 | 7.85 |
| O=C(Nc1cncnc1OCC(F)(F)F)c1ccnc(NCC2CCC2)n1 | 9.08 |
| CCn1nccc1Nc1nccc(C(=O)Nc2cnccc2-c2ccccc2)n1 | 8.52 |
| O=C(Nc1cnc(F)cc1N1CCOCC1)c1ccnc(Nc2ccc(Cl)cc2F)n1 | 9.24 |
| CC(C)(C)CNc1nccc(C(=O)Nc2cnc(F)cc2N2CCOCC2)n1 | 8.96 |
| O=C(Nc1cncnc1N1CCOCC1)c1ccnc(NCC2CC2)n1 | 7.72 |

###

Molecular target: GSK3α (Homo sapiens, UniProt P49840)
Sequence (P49840 whole entry, species assumed): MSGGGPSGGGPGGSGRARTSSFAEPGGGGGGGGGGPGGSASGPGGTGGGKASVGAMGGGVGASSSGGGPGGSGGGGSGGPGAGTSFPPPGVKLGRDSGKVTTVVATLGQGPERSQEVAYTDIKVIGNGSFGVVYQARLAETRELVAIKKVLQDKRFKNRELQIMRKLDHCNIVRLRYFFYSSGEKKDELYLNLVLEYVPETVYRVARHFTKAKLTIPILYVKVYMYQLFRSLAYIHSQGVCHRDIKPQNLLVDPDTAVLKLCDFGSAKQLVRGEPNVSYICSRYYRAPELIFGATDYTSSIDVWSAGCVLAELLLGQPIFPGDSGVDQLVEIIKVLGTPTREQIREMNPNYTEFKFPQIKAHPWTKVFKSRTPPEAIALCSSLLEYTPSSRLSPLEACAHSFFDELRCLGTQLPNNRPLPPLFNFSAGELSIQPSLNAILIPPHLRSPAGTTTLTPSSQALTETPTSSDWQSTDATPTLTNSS
# key: entry, value: log10 IC50
measurement name: log10 IC50 (log10 of the value in nM)

| molecule | log10 IC50 |
| --- | --- |
| O=C(Nc1cnccc1-c1ccccc1)c1ccnc(NC2CCOCC2)n1 | 0.15 |
| Cn1cnc(Nc2nccc(C(=O)Nc3cnccc3-c3ccccc3)n2)c1 | 2.23 |
| Cc1cc(Nc2nccc(C(=O)Nc3cnccc3-c3ccccc3)n2)c(C)nc1OC(F)F | 0.28 |
| CCn1nccc1Nc1nccc(C(=O)Nc2cnccc2-c2ccccc2)n1 | 0.34 |
| CC1CC(Nc2nccc(C(=O)Nc3cnccc3OCC(F)(F)F)n2)CC(C)O1 (stereo not drawn) | 1.58 |
| O=C(Nc1cnccc1OCC(F)(F)F)c1ccnc(NCc2ccccc2C(F)(F)F)n1 | 0.36 |
| O=C(Nc1cncnc1OCC(F)(F)F)c1ccnc(Nc2ccc(OC(F)(F)F)cc2)n1 | -0.22 |
| O=C(Nc1cncnc1N1CCOCC1)c1ccnc(NCC2CCC2)n1 | 0.79 |
| O=C(Nc1cncnc1OCC(F)(F)F)c1ccnc(Nc2ccc(OC(F)F)nc2)n1 | -0.74 |

###

GSK3α (Homo sapiens): reported pIC50 for various molecules.
pIC50: −log10 of the molar value.

| smiles structure | pIC50 |
| --- | --- |
| CC(C)OCCCNc1nccc(C(=O)Nc2cnccc2OCC(F)(F)F)n1 | 8.85 |
| O=C(Nc1cncnc1OCC(F)(F)F)c1ccnc(Nc2ccccc2)n1 | 9.25 |
| O=C(Nc1cnc(F)cc1N1CCC(F)(F)CC1)c1ccnc(Nc2ccc(Cl)cc2)n1 | 9.24 |
| O=C(Nc1cnc(F)cc1OCC(F)(F)F)c1ccnc(Nc2ccc(Cl)cc2)n1 | 9.17 |
| O=C(Nc1cnccc1OCC(F)(F)F)c1ccnc(NCc2cccc(F)c2)n1 | 8.80 |
